biological target: DPP-4 (Homo sapiens); construct: purchased Cayman Chemicals, Ann Arbor, MI, USA; assay: DPP-4 Inhibitor Screening Assay (fluorescence-based, Gly-Pro-AMC substrate); type: biochemical; conditions: compound at 100 µM; mean ± SD, triplicate
Sequence (P27487 whole entry): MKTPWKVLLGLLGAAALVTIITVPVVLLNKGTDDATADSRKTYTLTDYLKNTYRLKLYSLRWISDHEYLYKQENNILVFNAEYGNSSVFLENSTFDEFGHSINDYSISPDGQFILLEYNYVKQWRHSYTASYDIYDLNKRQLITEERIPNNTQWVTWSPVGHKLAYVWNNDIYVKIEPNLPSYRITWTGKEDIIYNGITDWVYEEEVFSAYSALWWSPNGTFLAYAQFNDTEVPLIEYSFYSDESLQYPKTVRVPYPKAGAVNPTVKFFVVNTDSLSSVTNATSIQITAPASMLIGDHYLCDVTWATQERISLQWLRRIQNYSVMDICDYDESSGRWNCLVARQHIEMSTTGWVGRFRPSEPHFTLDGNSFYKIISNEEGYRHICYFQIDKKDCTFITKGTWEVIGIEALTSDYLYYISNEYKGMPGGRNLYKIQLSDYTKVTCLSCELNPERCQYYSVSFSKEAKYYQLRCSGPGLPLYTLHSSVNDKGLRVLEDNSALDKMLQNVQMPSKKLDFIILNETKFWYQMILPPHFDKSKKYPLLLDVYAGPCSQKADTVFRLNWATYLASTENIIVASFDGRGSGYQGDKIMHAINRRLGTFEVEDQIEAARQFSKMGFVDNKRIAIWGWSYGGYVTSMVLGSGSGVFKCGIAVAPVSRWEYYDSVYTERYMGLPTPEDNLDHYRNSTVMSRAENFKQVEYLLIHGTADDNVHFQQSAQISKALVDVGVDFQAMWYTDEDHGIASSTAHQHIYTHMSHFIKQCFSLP
Criterion: inhibition at 100 µM meeting or surpassing 50%. Met: True. Not met: False.

Does the reported inhibition at 100 µM for S=C(N/N=C/c1ccc(Cl)cc1)Nc1ccc(-n2cccn2)cc1 fall at or above the 50% mark?
False

Does the compound Fc1ccc(/C=N/NC(=S)Nc2ccc(-n3cccn3)cc2)cc1 have recorded inhibition at 100 µM that is 50% or more?
False

For this compound, is measured inhibition at 100 µM 50% or higher? N#Cc1ccc(/C=N/NC(=S)Nc2ccc(-n3cccn3)cc2)cc1
False

# check: inhibition at 100 µM of CN(C)c1ccc(/C=N/NC(=S)Nc2ccc(-n3cccn3)cc2)cc1 is greater than or equal to 50%
True

Quick check, inhibition at 100 µM >= 50%? S=C(N/N=C/c1ccccc1)Nc1ccc(-n2cccn2)cc1
False

State whether the measured inhibition at 100 µM reaches 50%, counting equality as reaching it, for Cc1ccc(/C=N/NC(=S)Nc2ccc(-n3cccn3)cc2)cc1
True

Check this compound for inhibition at 100 µM at or above 50%: O=[N+]([O-])c1ccc(/C=N/NC(=S)Nc2ccc(-n3cccn3)cc2)cc1
False

Has CC(C)c1ccc(/C=N/NC(=S)Nc2ccc(-n3cccn3)cc2)cc1 a recorded inhibition at 100 µM greater than or equal to 50%?
False

Evaluate CSc1ccc(/C=N/NC(=S)Nc2ccc(-n3cccn3)cc2)cc1 : inhibition at 100 µM at minimum 50%?
True

----------
experiment: MTT cytotoxicity assay on NIH/3T3 cells; type: cell-based; conditions: mouse, NIH/3T3 mouse embryonic fibroblast cells, 24 h incubation, 31.25-500 µM, read-out: IC50 cytotoxicity towards NIH/3T3 cell line
outcome-measure: IC50 at 24 h

Give the measured IC50 at 24 h of S=C(NN=Cc1ccc(Br)cc1)Nc1ccc(-n2cccn2)cc1 [Compound 2f] .
> 500 µM

----------
molecular target: DPP-4 (Homo sapiens); construct: purchased Cayman Chemicals, Ann Arbor, MI, USA; assay: DPP-4 Inhibitor Screening Assay (fluorescence-based, Gly-Pro-AMC substrate); type: biochemical; settings: compound at 100 µM; mean ± SD, triplicate
Give inhibition at 100 µM for every item shown.

Reported inhibition at 100 µM for FC(F)(F)c1ccc(/C=N/NC(=S)Nc2ccc(-n3cccn3)cc2)cc1 : what is it?
> 60%

Dear colleague, I am looking for the recorded inhibition at 100 µM of the following compound: S=C(N/N=C/c1ccc(-c2ccccc2)cc1)Nc1ccc(-n2cccn2)cc1
> 60%

Sample COc1ccc(/C=N/NC(=S)Nc2ccc(-n3cccn3)cc2)cc1 — what was its inhibition at 100 µM?
> 60%
